experiment: Hemolytic activity in sheep erythrocytes at 128 ug/ml incubated for 2 hr by UV spectrophotometer relative to control; format: toxicity, cell-based, Ovis aries, Erythrocyte; details: at 128 µg/mL, read-out: Activity
metric_name: hemolysis at 2 h, 128 ug/ml (%)
Numbers only, in %.

Recorded hemolysis at 2 h, 128 ug/ml for C=CC(=O)Nc1cc2c(Oc3ccc(NC(=O)n4c(=O)c(-c5ccccc5)c(C)n4C)cc3F)cccc2cc1OC , please?
5

====

test: Hemolytic activity in sheep erythrocytes at 64 ug/ml incubated for 2 hr by UV spectrophotometer relative to control; format: toxicity, cell-based, Ovis aries, Erythrocyte; conditions: at 64 µg/mL, read-out: Activity
metric_name: hemolysis at 2 h, 64 ug/ml

Recorded hemolysis at 2 h, 64 ug/ml for CN(C)C/C=C/C(=O)Nc1cc2c(Nc3ccc(F)c(Cl)c3)ncnc2cc1O[C@H]1CCOC1 , please?
< 5%

====

system: PC-9; assay: Antiproliferative activity against human PC-9 cells overexpressing c-Met and EGFR assessed as reduction in cell viability incubated for 72 hrs by MTT assay; type: functional, cell-based; conditions: PC-9, 72 h
Would you kindly list pIC50 for each of these compounds?
Numbers only, as −log10 of the molar value.

- smiles_data: "C=CC(=O)Nc1cc2c(Oc3ccc(NC(=O)CCCc4ccc(OC)cc4)cc3F)ncnc2cc1OC"
  pIC50: 4.71
- smiles_data: "CCCCC(=O)Nc1cc2c(Oc3ccc(NC(=O)CCCc4ccccc4)cc3F)ncnc2cc1OC"
  pIC50: 5.05
- smiles_data: "CCCC(=O)Nc1cc2c(Oc3ccc(NC(=O)CCCc4ccsc4)cc3F)ncnc2cc1OC"
  pIC50: 4.86
- smiles_data: "C=CC(=O)Nc1cc2c(Oc3ccc(NC(=O)n4c(=O)c(-c5ccccc5)c(C)n4C)cc3F)cccc2cc1OC"
  pIC50: 5.98

# batch: return pIC50 for each of the 3 compounds below
1. C=CC(=O)Nc1cc2c(Oc3ccc(NC(=O)CCCc4ccsc4)cc3F)ncnc2cc1OC
2. C=CC(=O)Nc1cc2c(Oc3ccc(NC(=O)CCCc4ccc(F)cc4)cc3F)ncnc2cc1OC
3. COc1cc2ncnc(Oc3ccc(NC(=O)CCCc4ccccc4)cc3F)c2cc1NC(=O)CCC(C)C

6.00
5.34
4.47

# batch: return pIC50 for each of the 4 compounds below
1. CCCC(=O)Nc1cc2c(Oc3ccc(NC(=O)CCCc4ccccc4)cc3F)ncnc2cc1OC
2. CCC(=O)Nc1cc2c(Oc3ccc(NC(=O)CCCc4ccc(C)cc4)cc3F)ncnc2cc1OC
3. CCC(=O)Nc1cc2c(Oc3ccc(NC(=O)n4c(=O)c(-c5ccccc5)c(C)n4C)cc3F)cccc2cc1OC
4. CCC(=O)Nc1cc2c(Oc3ccc(NC(=O)CCCc4ccc(OC)cc4)cc3F)ncnc2cc1OC

1: 5.03; 2: 5.11; 3: 5.97; 4: 5.03

# batch: return pIC50 for each of the 4 compounds below
1. CCCC(=O)Nc1cc2c(Oc3ccc(NC(=O)CCCc4ccc(C)cc4)cc3F)ncnc2cc1OC
2. C=CC(=O)Nc1cc2c(Oc3ccc(NC(=O)c4sc(-c5ccccc5)nc4C)cc3F)cccc2cc1OC
3. C/C=C/C(=O)Nc1cc2c(Oc3ccc(NC(=O)CCCc4ccc(OC)cc4)cc3F)ncnc2cc1OC
4. C/C=C/C(=O)Nc1cc2c(Oc3ccc(NC(=O)n4c(=O)c(-c5ccccc5)c(C)n4C)cc3F)cccc2cc1OC

[4.54, 5.63, 5.09, 5.05]

# batch: return pIC50 for each of the 5 compounds below
1. C=CC(=O)Nc1cc2c(Oc3ccc(NC(=O)CCCc4ccccc4)cc3F)ncnc2cc1OC
2. CCC(=O)Nc1cc2c(Oc3ccc(NC(=O)CCCc4ccc(F)cc4)cc3F)ncnc2cc1OC
3. C=CC(=O)Nc1cc2c(Oc3ccc(NC(=O)NCCC4CCCCC4)cc3F)ncnc2cc1OC
4. CCC(=O)Nc1cc2c(Oc3ccc(NC(=O)CCCc4ccccc4)cc3F)ncnc2cc1OC
5. C/C=C/C(=O)Nc1cc2c(Oc3ccc(NC(=O)c4c(-c5c(Cl)cccc5Cl)noc4C)cc3F)cccc2cc1OC

5.61
5.51
5.77
5.59
5.21

# batch: return pIC50 for each of the 3 compounds below
1. C/C=C/C(=O)Nc1cc2c(Oc3ccc(NC(=O)CCCc4ccc(C)cc4)cc3F)ncnc2cc1OC
2. C/C=C/C(=O)Nc1cc2c(Oc3ccc(NC(=O)CCCc4ccc(F)cc4)cc3F)ncnc2cc1OC
3. C/C=C/C(=O)Nc1cc2c(Oc3ccc(NC(=O)CCCc4ccsc4)cc3F)ncnc2cc1OC

1. 5.08
2. 5.64
3. 5.79
